# METHOD_SUMMARY: Single dose pharmacokinetics (PK) study in female BALB/c mice
# Type: in vivo, mouse
# CONDITION_DESCRIPTION: female, BALB/c, mouse, plasma, iv, 3 mg/kg, female BALB/c mice

- COMPOUND: "CCn1c(-c2cc(N3CCN(C)CC3)cnc2[C@H](C)OC)c2c3cc(ccc31)-c1csc(n1)C[C@H](NC(=O)[C@H]1C[C@@H]1C)C(=O)N1CCC[C@H](N1)C(=O)OCC(C)(C)O2 [Example A122, reference compound]"
  clearance / mL/min/kg: 33.9
- COMPOUND: "CCn1c(-c2cc(N3CCN(C)CC3)cnc2[C@H](C)OC)c2c3cc(ccc31)-c1csc(n1)C[C@H](NC(=O)[C@H]1[C@H](C)[C@@H]1C)C(=O)N1CCC[C@H](N1)C(=O)OCC(C)(C)C2 [Example A252, reference compound]"
  clearance / mL/min/kg: 37.8

----------
# TARGET_UNDER_TEST: KRAS G12C-BRAF complex (Homo sapiens (Human), UniProt P01116+P62937, G12C)
# Sequence (P01116-2 other isoform, or with tags, fused parts or gaps G12C): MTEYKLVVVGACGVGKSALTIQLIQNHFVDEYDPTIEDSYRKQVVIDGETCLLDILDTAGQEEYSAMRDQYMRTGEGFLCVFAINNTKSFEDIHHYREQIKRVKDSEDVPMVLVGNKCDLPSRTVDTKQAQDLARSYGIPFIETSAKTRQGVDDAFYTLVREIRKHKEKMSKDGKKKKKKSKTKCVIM
# Sequence (P62937 whole entry): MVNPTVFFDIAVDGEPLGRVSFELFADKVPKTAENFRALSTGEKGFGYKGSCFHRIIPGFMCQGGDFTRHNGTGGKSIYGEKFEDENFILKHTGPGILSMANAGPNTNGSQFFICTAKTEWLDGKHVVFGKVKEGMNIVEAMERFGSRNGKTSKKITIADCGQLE
# METHOD_SUMMARY: KRAS-BRAF with CYPA (500 nM) interaction assay (TR-FRET, Example 136)
# CONDITION_DESCRIPTION: KRAS G12C-BRAF disruption
pIC50: −log10 of the molar value.

- COMPOUND: "CO[C@@H](C)c1ncc(N2CCN(C)CC2)cc1-c1c2c3cc(cc4c3n1CCC4)-c1csc(n1)C[C@H](NC(=O)[C@@H]1C[C@H]1c1cccnc1C)C(=O)N1CCC[C@H](N1)C(=O)OCC(C)(C)C2 (atropisomer, axis not shown; (M))"
  pIC50: 7.69
- COMPOUND: "CO[C@@H](C)c1ncc(N2CCN(C)CC2)cc1-c1c2c3cc(cc4c3n1CCC4)-c1csc(n1)C[C@H](NC(=O)C1CCOCC1)C(=O)N1CCC[C@H](N1)C(=O)OCC(C)(C)C2 (atropisomer, axis not shown; (M))"
  pIC50: 7.38

----------
# Tested on: SW620 cells (KRAS G12V)
# METHOD_SUMMARY: Cell viability assay (Cell Counting Kit-8, 3-day)
# Assay type: cell-based, human
# CONDITION_DESCRIPTION: Homo sapiens, SW-620; SW620, 72 hrs incubation
We begin with a simple list: items and their reported IC50.

- COMPOUND: "CO[C@@H](C)c1ncc(N2CCN(CC(F)(F)F)CC2)cc1-c1c2c3cc(cc4c3n1CCO4)-c1csc(n1)C[C@H](NC(=O)[C@H]1[C@H](C)[C@@H]1C)C(=O)N1CCC[C@H](N1)C(=O)OCC(C)(C)C2 (atropisomer, axis not shown; (M))"
  TARGET_UNDER_TEST: "SW620 cells (KRAS G12V)"
  IC50: "1 nM"
- COMPOUND: "CO[C@@H](C)c1ncc(N2CCN(C)CC2)cc1-c1c2c3cc(cc4c3n1CCCCC4)-c1csc(n1)C[C@H](NC(=O)[C@H]1[C@H](C)[C@@H]1C)C(=O)N1CCC[C@H](N1)C(=O)OCC(C)(C)C2"
  TARGET_UNDER_TEST: "SW620 cells (KRAS G12V)"
  IC50: "27 nM"
- COMPOUND: "CO[C@@H](C)c1ncc(N2CCN(C)CC2)cc1-c1c2c3cc(cc4c3n1CCC4)-c1csc(n1)C[C@H](NC(=O)[C@@H]1C[C@H]1c1cccnc1C)C(=O)N1CCC[C@H](N1)C(=O)OCC(C)(C)C2 (atropisomer, axis not shown; (M))"
  TARGET_UNDER_TEST: "SW620 cells (KRAS G12V)"
  IC50: "0.5 nM"
- COMPOUND: "CO[C@@H](C)c1ncc(N2CCN(C)CC2)cc1-c1c2c3cc(cc4c3n1CCO4)-c1csc(n1)C[C@H](NC(=O)C1(C)CC1(F)F)C(=O)N1CCC[C@H](N1)C(=O)OCC(C)(C)C2 (stereo partly drawn)"
  TARGET_UNDER_TEST: "SW620 cells (KRAS G12V)"
  IC50: "3 nM"
- COMPOUND: "CO[C@@H](C)c1ncc(N2CCN(CCF)CC2)cc1-c1c2c3cc(cc4c3n1CCC4)-c1csc(n1)C[C@H](NC(=O)[C@H]1[C@H](C)[C@@H]1C)C(=O)N1CCC[C@H](N1)C(=O)OCC(C)(C)C2 (atropisomer, axis not shown; (M))"
  TARGET_UNDER_TEST: "SW620 cells (KRAS G12V)"
  IC50: "0.4 nM"
- COMPOUND: "CO[C@@H](C)c1ncc(N2CCN(C)CC2)cc1-c1c2c3cc(cc4c3n1CC(F)(F)C4)-c1csc(n1)C[C@H](NC(=O)[C@H]1C[C@@H]1c1cccnc1)C(=O)N1CCC[C@H](N1)C(=O)OCC(C)(C)C2 (atropisomer, axis not shown; (M))"
  TARGET_UNDER_TEST: "SW620 cells (KRAS G12V)"
  IC50: "0.7 nM"
- COMPOUND: "CO[C@@H](C)c1ncc(N2CCN(C)CC2)cc1-c1c2c3cc(cc4c3n1CCC4)-c1csc(n1)C[C@H](NC(=O)[C@H]1[C@@H]3CC(F)(F)C[C@@H]31)C(=O)N1CCC[C@H](N1)C(=O)OCC(C)(C)C2 (atropisomer, axis not shown; (M))"
  TARGET_UNDER_TEST: "SW620 cells (KRAS G12V)"
  IC50: "1.7 nM"
- COMPOUND: "CO[C@@H](C)c1ncc(N2CCN3CCOC[C@@H]3C2)cc1-c1c2c3cc(cc4c3n1CCC4)-c1csc(n1)C[C@H](NC(=O)[C@H]1C[C@@H]1C(F)F)C(=O)N1CCC[C@H](N1)C(=O)OCC(C)(C)C2 (atropisomer, axis not shown; (M))"
  TARGET_UNDER_TEST: "SW620 cells (KRAS G12V)"
  IC50: "0.9 nM"
- COMPOUND: "CO[C@@H](C)c1ncc(N2CCN(C3COC3)CC2)cc1-c1c2c3cc(cc4c3n1CCC4)-c1csc(n1)C[C@H](NC(=O)[C@H]1[C@H](C)[C@@H]1C)C(=O)N1CCC[C@H](N1)C(=O)OCC(C)(C)C2 (atropisomer, axis not shown; (M))"
  TARGET_UNDER_TEST: "SW620 cells (KRAS G12V)"
  IC50: "0.2 nM"
- COMPOUND: "CO[C@@H](C)c1ncc(N2CCN(CC(F)(F)F)CC2)cc1-c1c2c3cc(cc4c3n1CCO4)-c1csc(n1)C[C@H](NC(=O)[C@H]1C[C@@H]1c1ccccc1)C(=O)N1CCC[C@H](N1)C(=O)OCC(C)(C)C2 (atropisomer, axis not shown; (M))"
  TARGET_UNDER_TEST: "SW620 cells (KRAS G12V)"
  IC50: "3.1 nM"
- COMPOUND: "CO[C@@H](C)c1ncc(N2CCN(C)CC2)cc1-c1c2c3cc(cc4c3n1CCC4)-c1csc(n1)C[C@H](NC(=O)[C@H]1C[C@@H]1c1cccnc1)C(=O)N1CCC[C@H](N1)C(=O)OCC(C)(C)C2 (atropisomer, axis not shown; (M))"
  TARGET_UNDER_TEST: "SW620 cells (KRAS G12V)"
  IC50: "0.3 nM"
- COMPOUND: "CO[C@@H](C)c1ncc(N2CCN(C)CC2)cc1-c1c2c3cc(cc4c3n1CCC4)-c1csc(n1)C[C@H](NC(=O)[C@@H]1C[C@H]1c1cncc(C)c1)C(=O)N1CCC[C@H](N1)C(=O)OCC(C)(C)C2 (atropisomer, axis not shown; (M))"
  TARGET_UNDER_TEST: "SW620 cells (KRAS G12V)"
  IC50: "0.4 nM"
- COMPOUND: "CO[C@@H](C)c1ncc(N2CCN(C)CC2)cc1-c1c2c3cc(cc4c3n1CCO4)-c1csc(n1)C[C@H](NC(=O)[C@@H]1[C@@H]3COC[C@@H]31)C(=O)N1CCC[C@H](N1)C(=O)OCC(C)(C)C2 (atropisomer, axis not shown; (M))"
  TARGET_UNDER_TEST: "SW620 cells (KRAS G12V)"
  IC50: "1.1 nM"
- COMPOUND: "CO[C@@H](C)c1ncc(N2CCOCC2)cc1-c1c2c3cc(cc4c3n1CC(F)(F)C4)-c1csc(n1)C[C@H](NC(=O)[C@H]1C[C@@H]1c1cccnc1)C(=O)N1CCC[C@H](N1)C(=O)OCC(C)(C)C2 (atropisomer, axis not shown; (M))"
  TARGET_UNDER_TEST: "SW620 cells (KRAS G12V)"
  IC50: "0.6 nM"
- COMPOUND: "CO[C@@H](C)c1ncc(N2CCOCC2)cc1-c1c2c3cc(cc4c3n1CCO4)-c1csc(n1)C[C@H](NC(=O)[C@H]1[C@@H]3COC[C@@H]31)C(=O)N1CCC[C@H](N1)C(=O)OCC(C)(C)C2 (atropisomer, axis not shown; (M))"
  TARGET_UNDER_TEST: "SW620 cells (KRAS G12V)"
  IC50: "< 0.6 nM"
